Kindly supply the reported GI50 at 48 h values for the records listed here.
Experiment: Cytotoxicity against human PANC1 cells assessed as growth inhibition after 48 hrs by MTT assay
Format: cell-based, PANC-1
Details: PANC1 cells

query: Please give the measured GI50 at 48 h for this compound: O=[N+]([O-])c1ccc(Cn2cc(COc3ccccc3)nn2)cc1
result: > 100 µg/mL

query: Next compound up: Clc1ccc(OCc2cn(Cc3cccc(Cl)c3)nn2)cc1
result: > 100 µg/mL

query: Next compound up: Cc1ccc(OCc2cn(Cc3cccc(Cl)c3)nn2)cc1
result: > 100 µg/mL

query: Next compound up: Cc1cc(OCc2cn(Cc3ccc([N+](=O)[O-])cc3)nn2)ccc1Cl
result: > 100 µg/mL

query: Next compound up: CC(=O)O[C@H]1C(=O)[C@@]2(C)[C@H]([C@H](OC(=O)c3ccccc3)[C@]3(O)C[C@H](OC(=O)[C@H](O)[C@@H](NC(=O)c4ccccc4)c4ccccc4)C(C)=C1C3(C)C)[C@]1(OC(C)=O)CO[C@@H]1C[C@@H]2O [PACLITAXEL]
result: 0.004 µg/mL

Numbers sourced from ChEMBL document CHEMBL3739373.
